src = patent US20120142771A1

Listed below: responders at 100 mg/kg values for each entry.
tested on: subcutaneously pentetrazol-injected model (scPTZ); experiment: Subcutaneously pentetrazol-injected model (scPTZ) test; format: in vivo, mice; conditions: Mus musculus, po, 1 h, 100 mg/kg oral, Slc: ddY male mice, 3 per group, pentetrazol 85 mg/kg s.c. after 1 hour, observed 30 minutes for clonic convulsion; read-out: scPTZ (positive number/tested number) (converted)
Report the value in % with no unit label.

Solved entries:
> print(dat)
                                   molecule       attribute.measured  recorded.measurement
1  CNC(=O)Cc1ccccc1-c1cc(F)cc(C(F)(F)F)c1 [Example 102]  responders at 100 mg/kg                  66.7
2  CNC(=O)C(F)c1ccccc1-c1ccc(F)cc1 (centres unmarked) [Example 166]  responders at 100 mg/kg                  66.7
3  NC(=O)Cc1ccccc1-c1cc(F)ccc1C(F)(F)F [Example 82]  responders at 100 mg/kg                   100
4  N#Cc1ccc(Cl)cc1-c1ccccc1CC(N)=O [Example 107]  responders at 100 mg/kg                   100

# input # responders at 100 mg/kg lookup, item NC(=O)Cc1c(F)cccc1-c1cccc(F)c1 [Example 140, 2-(3,3′-difluorobiphenyl-2-yl)acetamide]
# output 66.7
